# EXPERIMENTAL_TARGET: T1, recombinant human PLVAP51-442 protein (extracellular domain, His tag removed by thrombin) (human, UniProt Q9BX97 51-442)
# T1 construct: also called recombinant PLVAP protein; recombinant PLVAP
# T1 sequence: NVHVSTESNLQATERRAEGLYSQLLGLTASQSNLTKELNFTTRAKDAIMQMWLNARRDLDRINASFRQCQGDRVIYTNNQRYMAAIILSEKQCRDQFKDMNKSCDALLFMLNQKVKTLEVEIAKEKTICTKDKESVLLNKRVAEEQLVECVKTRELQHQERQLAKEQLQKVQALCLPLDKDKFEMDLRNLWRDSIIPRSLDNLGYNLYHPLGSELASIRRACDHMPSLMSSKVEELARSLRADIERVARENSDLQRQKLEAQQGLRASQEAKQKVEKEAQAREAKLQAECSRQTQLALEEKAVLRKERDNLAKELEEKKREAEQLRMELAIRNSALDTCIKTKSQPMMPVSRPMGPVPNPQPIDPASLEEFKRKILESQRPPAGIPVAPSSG
# MEASUREMENT_DESCRIPTION: competition ELISA on coated recombinant PLVAP; competitor biotinylated murine KFCC-GY5
MEASURED_PROPERTY: IC50 (µg/mL)

INSERT INTO assay_data (binder, measured_property, result_number) VALUES
  ('humanized KFCC-GY5 antibody CSR02-VH5/VK2 (antibody, human IgG4, V domains shown, also called VH5/VK2 (GY5 variant); CSR02-VH5NK2) VH: QVQLVQSGSELKKPGASVKVSCKASGYTFTSNYINWVRQAPGQGLEWMGNIYPSDGFTNYNQKFKDRVTITVDKSTSTAYMELSSLRSEDTAVYYCTRNFDVWGQGTTVTVSS VL: DVVMTQSPLSLPVTLGQPASISCRSSQSLVHSNGNTYLQWYLQKPGQSPQLLIYTVSNRFSGVPDRFSGSGSGTDFTLKISRVEAEDVGVYFCSQSTHVPFTFGQGTKLEIKR', 'IC50', 0.6);
